test-system: hGLP-1R (Homo sapiens)
Sequence (P43220 24-463): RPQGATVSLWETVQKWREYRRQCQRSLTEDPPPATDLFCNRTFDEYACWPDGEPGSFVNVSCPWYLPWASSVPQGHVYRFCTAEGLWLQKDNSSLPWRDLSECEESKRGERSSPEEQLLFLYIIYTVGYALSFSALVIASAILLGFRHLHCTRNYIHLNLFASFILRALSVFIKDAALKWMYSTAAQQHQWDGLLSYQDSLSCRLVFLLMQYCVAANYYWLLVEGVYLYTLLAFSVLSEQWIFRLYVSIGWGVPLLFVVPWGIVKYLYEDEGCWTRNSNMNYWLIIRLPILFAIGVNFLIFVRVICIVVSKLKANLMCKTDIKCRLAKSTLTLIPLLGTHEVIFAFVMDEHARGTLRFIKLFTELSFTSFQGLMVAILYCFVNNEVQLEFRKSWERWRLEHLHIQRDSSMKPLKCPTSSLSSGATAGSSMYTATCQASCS
experiment-description: Functional cAMP activation in the presence of 0.1% casein (no HSA);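 further: intracellular cAMP rise after 30 min at 37 °C read by HTRF, normalized between buffer only (0%) and maximal control ligand (100%), four-parameter variable-slope fit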
Type: cell-based
experimental-context: read-out: Relative cAMP EC50, hGLP-1R
Starred links: 1 amine or outer side, 2 acyl side, 3 side chain; linkers in the order of their positions; H or OH if unused. Non-standard residues stand in square brackets, D forms with d. Groups on a side chain read outwards from the residue. *: point of attachment. C18 diacid = O=C(O)CCCCCCCCCCCCCCCCC(=O)*; αMePhe(2-F) = C[C@](N)(Cc1ccccc1F)C(=O)O; γGlu = O=C(O)[C@H](CCC(=O)[*:2])N[*:1]; αMe4Pal = C[C@](N)(Cc1ccncc1)C(=O)O; αMeY = C[C@](N)(Cc1ccc(O)cc1)C(=O)O; 4Pal = N[C@@H](Cc1ccncc1)C(=O)O; αMeL = CC(C)C[C@](C)(N)C(=O)O; αMeS = C[C@](N)(CO)C(=O)O; Orn = NCCC[C@H](N)C(=O)O; AEEA = NCCOCCOCC(=O)O; Aib = CC(C)(N)C(=O)O
I'd appreciate it if you marked entries True when EC50 is lower than 0.6 nM and False when it is not.

Worked examples follow.
>>> assigned_label("H-Y[Aib]QGT[αMePhe(2-F)]TSD[4Pal][αMeS]I[αMeL]LD[Orn]K([AEEA-γGlu-C18 diacid])AQ[αMe4Pal]EFI[dE][αMeY]LVEGGPSSGEPPPSGTGE-NH2 [Example 734]")
"True"
>>> assigned_label("H-Y[Aib]QGT[αMePhe(2-F)]TSD[4Pal][αMeS]I[αMeL]LD[Orn]K([AEEA-γGlu-C18 diacid])AA[Aib]EFI[dE][αMeY]LIEGGPSSGAPPPSG[dE]-NH2 [Example 721]")
"True"
>>> assigned_label("H-Y[Aib]QGT[αMePhe(2-F)]TSD[4Pal][αMeS]I[αMeL]LD[Orn]K([AEEA-γGlu-C18 diacid])AQ[Aib][Orn]FI[dE][αMeY]LIEGGPSSGEPPPEGTGE-NH2 [Example 697]")
"True"

Is EC50 strictly under 0.6 nM for the entry H-Y[Aib]QGT[αMePhe(2-F)]TSD[4Pal][αMeS]I[αMeL]LD[Orn]K([AEEA-γGlu-C18 diacid])AQ[αMe4Pal]EFI[dE][αMeY]LVEGGPSSGAPPPSGSE-NH2 [Example 751] ?
True

Lab note: EC50 threshold 0.6 nM. Does this substance come in strictly under it? H-Y[Aib]QGT[αMePhe(2-F)]TSD[4Pal]SILLDKK([γGlu-γGlu-C18 diacid])AQ[Aib]AFIE[αMeY]LEEGGPSSGAPPPSGTGE-NH2 [Example 664]
True

Given the entry H-Y[Aib]QGT[αMePhe(2-F)]TSD[4Pal]SI[αMeL]LD[Orn]K([γGlu-γGlu-C18 diacid])AQ[αMe4Pal]EFI[dE][αMeY]LLEGGPSSGAPPPSGE-NH2 [Example 617] , would its reported EC50 be below 0.6 nM?
True

EC50 strictly < 0.6 nM for this substance? H-Y[Aib]QGT[αMePhe(2-F)]TSD[4Pal]SILLDKK([γGlu-γGlu-C18 diacid])AQ[Aib]AFIEYLEEGGPSSGEPPPSGTEE-NH2 [Example 608]
False
